tested on: lacZ under control of the tetA promoter (PtetA) in E. coli KM3; assay type: cell-based; conditions: Table 4; nicosulfuron 20 ppm; 48 hrs at 30° C.
measure: relative β-galactosidase activity, inducer Ns

>>> reported_result("L1-28: SU-responsive TetR(B) variant, library L1 hit (protein, Sulfonylurea responsive repressor L1-28) MGSRLDKSKVINSALELLNEVGIEGLTTRKLAQKLGVEQPTLYWHVKNKRALLDALAIEMLDRHATHFCPLEGESWQDFLRNNAKSMRCALLSHRDGAKVWLGTAWTEKQYETPENVLAFLCQQGFSLENALYASRAVVTFTLGCVLTDQEKQVAKEERETPTTDSMPPLLRQAWELLDHQGAEPAFLFGLELIICGLEKQLKCESGS")
0.1
